Source: PubChem BioAssay

Listed next: entries and their corresponding composite Z-score.
- assayComment: small-molecule microarray binders of probe aXIP, primary screen, biochemical, NeuroSMM set, 635/667 nm fluorescence (AID 1119);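 further: probe is the protein aXip251-270 applied at 1 µg/mL to compound-printed slides; binding of probe to printed compounds measured as 667 nm fluorescence plus signal to noise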
- recordedConditions: higher = more signal, called active from +8 up or from −8 down
Answer field: number only, no words.

- O=C1O[C@@H](c2ccccc2)[C@@H](c2ccccc2)N2[C@@H](c3ccc(O)cc3)[C@]3(C(=O)Nc4ccccc43)[C@@H](C(=O)N3CCN(c4ncccn4)CC3)[C@H]12: 5.4
- CC(C)N1CC=CC23O[C@@H]4/C=C\CCCOC(=O)C4[C@H]2C(=O)N(CCO)[C@@H]3C1=O (some centres undefined): 1.95

Which composite Z-score is reported for this compound? CCCC[C@@H]1C[C@H]1[C@@H](NC(=O)c1cccs1)c1ccc(Cl)cc1
2.33

Which composite Z-score is reported for this compound? CC(C)C[C@@H]1NC(=O)[C@H](CC(C)C)NC(=O)[C@@]23C(=O)N[C@@H](Cc4ccccc4)C2[C@H](C)[C@@]2(C)O[C@H]2C3/C=C/CC/C=C/CNC1=O (some centres undefined)
-0.392

Which composite Z-score is reported for this compound? CC(=O)NCCCC[C@@H]1NC(=O)[C@H]2C[C@@H](C(=O)NCCCCCCN(C)C)[C@@H](c3cccc(OCCO)c3)N2C1=O
3.25

Which composite Z-score is reported for this compound? C=CCN1C(=O)[C@@]2(O[C@@H](CCn3cc([C@H](O)c4ccccc4)nn3)[C@H]([Si](C)(C)c3ccc(OC)cc3)[C@H]2C)c2cc(N3CCOC3=O)ccc21
0.146

Which composite Z-score is reported for this compound? C[C@H]1NC(=O)[C@@H](C)NC(=O)[C@@]23C(=O)N[C@@H](Cc4ccccc4)C2[C@H](C)[C@@]2(C)O[C@H]2C3/C=C/C/C=C\CNC1=O (some centres undefined)
0.0894

Which composite Z-score is reported for this compound? O=[N+]([O-])c1ccc(C[n+]2ccc3ccc(O)cc3c2)o1
0.14

###

- studySystem: Left-right determination factor 2 (Homo sapiens)
- assayComment: LEFTY2 binders on small-molecule microarrays, primary screen, biochemical, small-molecule microarray, 635 nm fluorescence scan (AID 1110)
- recordedConditions: LEFTY2 binding, higher = more signal
Listed next: entries and their corresponding composite z-score.
Answer field: number only, no words.

* C=C(CCCC)C(=O)CC[C@@H](OC(=O)c1cccnc1)c1cccc(OCCO)c1 | 0.0009
* Cc1ccc(S[C@]2(C(=O)O)CC(=O)N(Cc3cc(C(F)(F)F)cc(C(F)(F)F)c3)[C@@H]2c2ccc(CO)cc2I)cc1 | -2.05
* CC(C)=C1C(=O)C(c2ccccc2)=C2CN3C(=O)N(CCc4ccccc4)C(=O)[C@]3(Cc3ccccc3)[C@H]21 | -1.54
* O=C1O[C@H](c2ccccc2)[C@H](c2ccccc2)N2[C@H]1[C@@H](C(=O)NC[C@H](O)c1ccccc1)[C@]1(C(=O)Nc3ccc(C#CC4(O)CCCCCC4)cc31)[C@H]2c1ccc(OCCO)cc1 | -0.12
* C=CCC(OC(C)=O)[C@@H]1[C@@H](N(Cc2cc3ccccc3o2)C(=O)Cc2ccc(F)cc2)c2cc(OCCCO)ccc2N1C(=O)c1ccc(-c2ccccc2)cc1 (stereo not given in full) | -0.159

Which composite z-score is reported for this molecule? NC(=O)[C@H]1[C@@H]2C(=O)O[C@@H](c3ccccc3)[C@@H](c3ccccc3)N2[C@@H](c2ccc(O)cc2)[C@]12C(=O)Nc1ccc(C#CCCO)cc12
-1.05

Which composite z-score is reported for this molecule? C=CCC(OC(C)=O)[C@@H]1[C@@H](N(Cc2ccc(-c3ccccc3)cc2)C(=O)c2ccc(-c3ccccc3)cc2)c2cc(OCCCO)ccc2N1C(=O)Cc1ccc(OC)cc1 (stereo not given in full)
0.241

Which composite z-score is reported for this molecule? CCCC=C(CCC)[C@@H](NS(=O)(=O)c1cccc(C(F)(F)F)c1)c1ccc(C(=O)OC)cc1
-0.81

Which composite z-score is reported for this molecule? C=CCC(OC(C)=O)[C@@H]1[C@@H](N(Cc2ccc(-c3ccccc3)cc2)C(=O)c2ccc(C)cc2)c2cc(OCCCO)ccc2N1C(=O)c1ccc(-c2ccccc2)cc1 (stereo not given in full)
0.181

Which composite z-score is reported for this molecule? COCCOC(=O)N1C(=O)[C@@]2(c3cc(C#CCNC(N)=O)ccc31)[C@H](C(=O)N1CCCCCCC1)[C@H]1C(=O)O[C@H](c3ccccc3)[C@H](c3ccccc3)N1[C@@H]2c1ccccc1OCCO
1.09

Which composite z-score is reported for this molecule? COCCOC(=O)N1C(=O)[C@@]2(c3cc(C#CCCO)ccc31)[C@H](C(=O)N1CCCCCCC1)[C@H]1C(=O)O[C@H](c3ccccc3)[C@H](c3ccccc3)N1[C@@H]2c1ccc(O)cc1
0.383

Which composite z-score is reported for this molecule? COCCOC(=O)N1C(=O)[C@@]2(c3cc(C#CCC(C(=O)OC)C(=O)OC)ccc31)[C@H](c1ccccc1OCCO)N1[C@H](c3ccccc3)[C@H](c3ccccc3)OC(=O)[C@H]1[C@@H]2C(=O)N1CCCCCCC1
1.24

Which composite z-score is reported for this molecule? CCc1cccc(NC(=O)O[C@H]2[C@H](OC(=O)Nc3ccccc3)[C@@H](OC(=O)Nc3ccccc3)[C@@H](OC)O[C@@H]2CO)c1
0.273

Which composite z-score is reported for this molecule? COc1cccc([C@@H]2[C@@H](C)CC[C@H]3C(=O)N4[C@H](c5cccc(OC)c5)[C@@H](C)CC[C@H]4C(=O)N23)c1
0.767

Which composite z-score is reported for this molecule? C=CC[C@]1(C(=O)OC)N=C(c2ccc(OCCCO)cc2)O[C@H]1c1ccccc1CN=[N+]=[N-]
-0.978

Which composite z-score is reported for this molecule? O=C1O[C@@H](c2ccccc2)[C@@H](c2ccccc2)N2[C@@H](c3ccc(O)cc3)[C@]3(C(=O)Nc4ccc(C#CC5(O)CCCCCC5)cc43)[C@@H](C(=O)Nc3nc4ccccc4s3)[C@H]12
0.494

###

- assayComment: basal 3T3-L1 adipocyte mitochondrial potential changes, profiling panel, cell-based, JC-1 fluorescence, 3T3-L1 adipocytes, 24 h, 100 nL compound (AID 1168); further: test concentration not given here
- recordedConditions: JC-1 mitochondrial fluorescence, higher = more signal, called active from +8 up or from −8 down
readoutKind: z-score
Answer field: number only, no words.

• C=CC[C@]1(C(N)=O)N=C(c2ccc(OCCCO)cc2)O[C@H]1c1ccccc1CN=[N+]=[N-] = -0.436
• O=C1O[C@@H](c2ccccc2)[C@@H](c2ccccc2)N2[C@@H](c3ccccc3OCCO)[C@]3(C(=O)Nc4ccc(C#CC5=CCCCC5)cc43)[C@@H](C(=O)O)[C@H]12 = 4.74
• C=CCOC(=O)[C@@H]1[C@H]2C(=O)O[C@H](c3ccccc3)[C@H](c3ccccc3)N2[C@H](c2ccc(OCCOC(=O)[C@H]3C[C@H]4C(=O)N5CCC[C@H]5C(=O)N4[C@H]3c3ccc(O)cc3)cc2)[C@@]12C(=O)Nc1ccccc12 = 0.597
• COCCOC(=O)N1C(=O)[C@@]2(c3cc(C#CCC(C(=O)OC)C(=O)OC)ccc31)[C@H](c1ccccc1OCCO)N1[C@H](c3ccccc3)[C@H](c3ccccc3)OC(=O)[C@H]1[C@@H]2C(=O)N1CCCCCCC1 = 2.19

Which z-score is reported for this compound? C[C@]1(C(=O)NCc2ccccc2)c2ccccc2C(=O)N(Cc2cc(C(F)(F)F)cc(C(F)(F)F)c2)[C@H]1c1ccc(CO)cc1
-0.122

Which z-score is reported for this compound? COCCOC(=O)N1C(=O)[C@@]2(c3cc(C#CC4=CCCCC4)ccc31)[C@H](c1ccc(O)cc1)N1[C@H](c3ccccc3)[C@H](c3ccccc3)OC(=O)[C@H]1[C@@H]2C(=O)N1CCCCCCC1
1.37

###

- studySystem: Fibroblast growth factor 10 (Homo sapiens) (UniProt O15520)
- Sequence (O15520 whole entry, looked up): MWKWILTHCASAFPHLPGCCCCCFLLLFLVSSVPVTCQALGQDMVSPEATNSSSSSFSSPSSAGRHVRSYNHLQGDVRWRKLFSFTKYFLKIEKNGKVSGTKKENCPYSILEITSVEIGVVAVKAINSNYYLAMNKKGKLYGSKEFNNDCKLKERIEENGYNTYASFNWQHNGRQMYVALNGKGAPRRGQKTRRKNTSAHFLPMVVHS
- assayComment: FGF10 binders on small-molecule microarrays, primary screen, biochemical, small-molecule microarray, 635 nm fluorescence (AID 1102)
- recordedConditions: FGF10 binding, fluorescence 635 nm, higher = more signal
Listed next: entries and their corresponding composite z-score.
Answer field: number only, no words.

Previously resolved entries follow.
- COCCOC(=O)N1C(=O)[C@@]2(c3cc(C#CC4=CCCCC4)ccc31)[C@H](C(=O)NC[C@H](O)c1ccccc1)[C@H]1C(=O)O[C@H](c3ccccc3)[C@H](c3ccccc3)N1[C@@H]2c1ccccc1OCCO: 0.533
- CCOC(=O)C[C@H]1[C@H](OC(=O)c2ccccc2-c2ccccc2)[C@@H](NC(=O)c2ccc(-c3ccccc3)cc2)c2cc(OCCCO)ccc2N1C(=O)Cc1ccc(OC)cc1: 0.295
- CCOC(=O)C1=CC[C@@H](c2ccc(-c3ccc(OCc4ccccc4)cc3)c(OC)c2)N(S(=O)(=O)c2ccc(C)cc2)[C@H]1c1ccccc1: 1.24

Which composite z-score is reported for this compound? C=CC[C@@]1(C(=O)N2CCOCC2)N=C(c2ccc(OCCCO)cc2)O[C@@H]1c1ccccc1
0.293

Which composite z-score is reported for this compound? CO[C@@H]1COC(=O)[C@H](COCc2ccccc2)NC(=O)CC=C[C@@H](C)[C@H](OC)COC(=O)[C@H](COCc2ccccc2)NC(=O)CC=C[C@H]1C
0.168

Which composite z-score is reported for this compound? Cc1ccc(S[C@]2(C(=O)NC3CC3)CC(=O)N(Cc3cc(C(F)(F)F)cc(C(F)(F)F)c3)[C@@H]2c2ccc(CO)cc2)cc1
0.295

Which composite z-score is reported for this compound? CCOC(=O)C[C@H]1[C@H](OC(=O)Cc2ccc3c(c2)OCO3)[C@@H](NC(=O)c2ccc3ccccc3c2)c2cc(OCCCO)ccc2N1C(=O)Cc1ccc(OC)cc1
0.491

Which composite z-score is reported for this compound? CC(C)N1CC=CC23O[C@@H]4/C=C\CCCOC(=O)C4[C@H]2C(=O)N(CCCCCO)[C@@H]3C1=O (some centres undefined)
-0.655

Which composite z-score is reported for this compound? CC(C)(C)OC(=O)CC[C@]1(C(=O)N2CCCCC2)N=C(c2ccc(OCCCO)cc2)O[C@H]1c1ccccc1
1.2

Which composite z-score is reported for this compound? O=C(CS)NCCCCCNC(=O)[C@H]1C[C@H]2C(=O)N3CCC[C@H]3C(=O)N2[C@H]1c1ccc(O)cc1
-0.0763

Which composite z-score is reported for this compound? COCCOC(=O)N1C(=O)[C@@]2(c3cc(C#CCCO)ccc31)[C@H](c1ccc(OCCO)cc1)N1[C@H](c3ccccc3)[C@H](c3ccccc3)OC(=O)[C@H]1[C@@H]2C(=O)NC[C@H](O)c1ccccc1
1.31

Which composite z-score is reported for this compound? O=C/C=C/c1ccccc1Cl
0.0974

Which composite z-score is reported for this compound? COc1ccc(NN2C(C(O)c3cc(OC)c(OC)c(OC)c3)C=CC3C(=O)N(C4CCCCC4)C(=O)C32)cc1 (centres undefined)
0.672

Which composite z-score is reported for this compound? CO[C@H]1COC(=O)CC=C[C@H](C)[C@@H](OC)COC(=O)[C@H](Cc2ccccc2)NC(=O)CC=C[C@@H]1C
-0.0885
